recorded_endpoint: melting point

Known melting point results, listed for orientation:
molecule: O=C(Oc1cccnc1)N1CCC(C2c3ccc(Cl)cc3C=Cc3cccnc32)CC1 (stereo not shown)
melting point: 102.1 to 103.9 °C
--
molecule: O=C(Sc1ccccc1)N1CCC(=C2c3ccc(Cl)cc3CCc3cccnc32)CC1 [Compound 595.00]
melting point: 175 to 177 °C
--
molecule: CCOC(=O)N1CCC(C2c3ccc(Cl)cc3C=Cc3ccc[n+]([O-])c32)CC1 (stereo not shown)
melting point: 78.6 to 89.4 °C

Now take the following molecule into account.
melting point reported for this molecule CCOC(=O)N1CCC(=C2c3ccc(Cl)cc3CCc3c(On4nnc5ccccc54)ccnc32)CC1 [Compound 654.00] : 181.5 to 183.9 °C
